experiment.notes: BSK_LPS_PGE2: BioMAP Diversity Plus: LPS Assay for Prostaglandin E2 (PGE2) Biomarker Activity (AID 2283082)
condition.parameters: primary human HUVEC with PBMC; actives raise or lower the signal
Activity calls are given as the source filed them. Rule for the calls: active = hit-call score of the fitted dose curve at least 0.9, where 1 is the maximum; inactive = score below 0.9.
Can you answer with just one of these options? active, inactive

Please review the entries below; each comes with its answer.
[
  {
    "compound": "CCOc1cc(Oc2ccc(C(F)(F)F)cc2Cl)ccc1[N+](=O)[O-]",
    "class.name": "inactive"
  },
  {
    "compound": "COC(=O)C=C(C)OP(=O)(OC)OC",
    "class.name": "active"
  }
]

In: Per the assay record, what outcome was assigned to "CCCCNC(=O)n1c(NC(=O)OC)nc2ccccc21" ?
Out: inactive
